System: MAK
Condition Details: concentration: 1 μM, replicates: in singlicate; n = 1
Measured %Inh, listed per entry for reference.

Recorded %Inh, per entry:
INSERT INTO results (compound, value_kind, recorded_result) VALUES
  ('CC(=O)c1cccc(NC(=O)NC2CCN(c3ccnc(Nc4ccc(F)cc4)n3)C2)c1 (centres unmarked)', '%Inh', '47%'),
  ('CN1c2ccc(-c3ccc(C(N)=O)cc3)cc2-c2[nH]ncc2S1(=O)=O', '%Inh', '0%'),
  ('COC(=O)C(Cc1ccccc1)NC(=O)NC1CCN(c2ccnc(Nc3ccc(F)cc3)n2)C1 (centres unmarked)', '%Inh', '35%'),
  ('COc1ccc(CSc2nnc(-c3ccc4nccn4c3)o2)cc1C(F)(F)F', '%Inh', '0%'),
  ('COc1ccc(Nc2nccc(N3CCC(NC(=O)C(C)c4ccc(Cl)cc4)C3)n2)cc1 (centres unmarked)', '%Inh', '9%'),
  ('Cc1ccc(NC(=O)Nc2ccccc2)cc1-c1ccc(C(=O)Nc2ccncc2)cc1', '%Inh', '17%');

Give recorded %Inh. Cc1ccc(NC(=O)c2ccc(Cl)cc2)cc1-c1ccc(C(=O)Nc2ccncc2)cc1
0%

Give recorded %Inh. COc1nccc(-c2c(-c3ccc(F)cc3)ncn2CCCN2CCOCC2)n1
29%

Give recorded %Inh. Fc1ccc(-c2nc[nH]c2-c2ccncc2)cc1
5%

Give recorded %Inh. COc1ccc(-c2coc3ccc(-c4nnc(C)o4)cc23)cc1
0%

Give recorded %Inh. c1ccc(-c2ccnc3[nH]ccc23)cc1
0%

Give recorded %Inh. NS(=O)(=O)c1cccc(N/C=C2\C(=O)Nc3ccc(S(=O)(=O)Cc4c(Cl)cccc4Cl)cc32)c1
28%

---

System: PKN1
Condition Details: concentration: 1 μM, replicates: in singlicate; n = 1
Measured %Inh, listed per entry for reference.
Just the number in %, nothing appended.

Recorded %Inh, per entry:
INSERT INTO assay_data (molecule_smiles, recorded_result) VALUES
  ('CNc1nc(-c2ccc3c(N)n[nH]c3c2)cc(N2C[C@@H](C(=O)NC3CCCCC3)OC[C@H]2C)n1', 29),
  ('Cc1ccc(-c2nc(Nc3ccncc3)c3ccccc3n2)s1', 26),
  ('O=C1NC(=O)C(c2ccc(Cl)cc2)=C1Nc1cccc(Cl)c1', 15);

Consider now this further compound.
Give recorded %Inh. Cc1ccc(NC(=O)Nc2ccc(Cl)c(C(F)(F)F)c2)cc1-c1ccc(C(=O)Nc2ccncc2)cc1
10

---

Test system: CDC2L1;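 further: kd values determined as follow-up on hits from a single-replicate KINOMEscan panel screen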
Construct: gene CDK11B
Value Kind: Kd

Please indicate recorded Kd of Cc1nccc(-c2c(-c3ccc(F)cc3)ncn2CCCN2CCOCC2)n1.Cl measured with CDC2L1.
> 10 µM

---

Test system: MYLK2
Condition Details: concentration: 1 μM, replicates: in singlicate; n = 1
Measured %Inh, listed per entry for reference.
Just the number in %, nothing appended.

Recorded %Inh, per entry:
INSERT INTO measurements (compound, recorded_result) VALUES
  ('Cc1ccc(NC(=O)Nc2ccccc2F)cc1-c1ccc(C(=O)Nc2ccncc2)cc1', 19),
  ('CS(=O)(=O)CCNCc1nc(-c2ccc3ncnc(Nc4ccc(OCc5ccccc5)c(Cl)c4)c3c2)cs1.Cl', 3),
  ('COc1ccc(Nc2nccc(N3CCC(NC(=O)c4cc5ccccc5s4)C3)n2)cc1 (stereo not shown)', 0),
  ('Cc1ccc(NC(=O)c2ccc(Cl)cc2)cc1-c1ccc(C(=O)Nc2ccncc2)cc1', 0),
  ('Fc1ccc(-c2nc3n(c2-c2ccncc2)CCS3)cc1', 14);

Give recorded %Inh. COC(=O)C(Cc1ccccc1)NC(=O)NC1CCN(c2ccnc(Nc3ccc(F)cc3)n2)C1 (stereo not shown)
0

Give recorded %Inh. Nc1cccc(-c2ccc3c(N)n[nH]c3c2)n1
90

---

System: CSNK1A1
Condition Details: concentration: 1 μM, replicates: in singlicate; n = 1
Value Kind: %Inh (%)
Just the number in %, nothing appended.

Recorded %Inh, per entry:
INSERT INTO assay_data (compound, value_kind, unit_abbreviation, recorded_result) VALUES
  ('Cn1cncc1-c1cc2c(Nc3ccc(OCc4ccccc4)cc3)ncnc2cn1', '%Inh', '%', 0),
  ('Cc1cccc2c(-c3ccncn3)c(-c3ccc(F)cc3)nn12', '%Inh', '%', 50),
  ('Cc1ccc(NC(=O)Nc2ccc(Cl)cc2)cc1-c1ccc(C(=O)Nc2ccncc2)cc1', '%Inh', '%', 0);

Give recorded %Inh. Nc1ncnc2occ(-c3ccc4c(c3)CCN4C(=O)Cc3cc(F)ccc3F)c12
1

Give recorded %Inh. CCn1c(-c2ccccc2)nc2cnccc21
0

Give recorded %Inh. CCc1ccc(-c2ccc3c(c2)-c2n[nH]cc2S(=O)(=O)N3C)cc1
0

Give recorded %Inh. COc1cc2ncnc(Nc3cccc(Br)c3)c2cc1OC.Cl
0

Give recorded %Inh. CC(=O)c1cccc(NC(=O)NC2CCN(c3ccnc(Nc4ccc(F)cc4)n3)C2)c1 (stereo not drawn)
0

Give recorded %Inh. Fc1ccc(-c2nn3cccc(F)c3c2-c2ccncc2)cc1
69

---

Test system: EPHB1
Condition Details: concentration: 1 μM, replicates: in singlicate; n = 1
Value Kind: %Inh (%)
Just the number in %, nothing appended.

Recorded %Inh, per entry:
INSERT INTO results (compound, target_entity, unit_abbreviation, recorded_result) VALUES
  ('CC(=O)c1c(C)c2cnc(Nc3ccn(C)n3)nc2n(C2CCCC2)c1=O', 'EPHB1', '%', 0),
  ('CNc1nc(-c2ccc3c(N)n[nH]c3c2)cc(N2C[C@@H](C(=O)Nc3ccccc3)CC[C@H]2C)n1 [GSK2298859]', 'EPHB1', '%', 0),
  ('O=C1NC(=O)C(c2ccc(Cl)cc2)=C1Nc1cccc(Cl)c1 [SB-317651]', 'EPHB1', '%', 0);

Give recorded %Inh. Cn1cncc1C(=O)NC1CCN(c2ccnc(Nc3ccc(F)cc3)n2)C1 (stereo not drawn) [GSK1379717]
7

---

Tested on: SLK
Condition Details: concentration: 1 μM, replicates: in singlicate; n = 1
Measured %Inh, listed per entry for reference.
Please provide the amount together with its unit, number first.

Please indicate recorded %Inh of O=c1cc(N2CCOCC2)nc2n(Cc3ccccc3F)ccn12 measured with SLK.
28%

Please indicate recorded %Inh of Nc1nccc(-c2c(-c3ccc(F)cc3)ncn2C2CCN(Cc3ccccc3)CC2)n1 measured with SLK.
0%

Please indicate recorded %Inh of CS(=O)(=O)Cc1ccc(Nc2nccc(-c3c(-c4cccc(NC(=O)C5CCCCC5)c4)nn4ncccc34)n2)cc1 measured with SLK.
53%

Please indicate recorded %Inh of COc1ccc(Nc2nccc(N3CCC(NC(=O)C(C)c4ccc(Cl)cc4)CC3)n2)cc1 (stereo not shown) measured with SLK.
28%

---

Measured %Inh, listed per entry for reference.
Tested on: CAMKK1
Condition Details: concentration: 1 μM, replicates: in singlicate; n = 1
Just the number in %, nothing appended.

Recorded %Inh, per entry:
INSERT INTO results (compound, value_kind, unit_abbreviation, recorded_result) VALUES
  ('Nc1cccc(-c2ccc3c(N)n[nH]c3c2)n1', '%Inh', '%', 27),
  ('Cl.Cl.Cl.N#Cc1ccc(CCNc2nccc(-c3cccc(CN4CCNCC4)c3)n2)cc1', '%Inh', '%', 35);

Give recorded %Inh. O=C(Nc1n[nH]c2nc(-c3ccco3)c(Br)cc12)C1CCN(Cc2ccccc2)C1.O=C(O)[C@H](O)[C@@H](O)C(=O)O (stereo not drawn)
20

Give recorded %Inh. COc1nccc(-c2c(-c3ccc(F)cc3)ncn2CCCN2CCOCC2)n1
10

Give recorded %Inh. CS(=O)(=O)Cc1ccc(Nc2nccc(-c3c(-c4cccc(NC(=O)C5CCCCC5)c4)nn4ncccc34)n2)cc1
0

Give recorded %Inh. Cn1cnc2c(N)ncnc21
0

Give recorded %Inh. CN1c2ccc(-c3ccc(C(N)=O)cc3)cc2-c2[nH]ncc2S1(=O)=O
100

Give recorded %Inh. CS(=O)(=O)CCNCc1nc(-c2ccc3ncnc(Nc4ccc(OCc5ccccc5)c(Cl)c4)c3c2)cs1.Cl
0

Give recorded %Inh. COc1ccc(Nc2nccc(N3CCC(NC(=O)C(C)c4ccc(Cl)cc4)C3)n2)cc1 (stereo not drawn)
18

Give recorded %Inh. CCc1ccc(-c2ccc3c(c2)-c2n[nH]cc2S(=O)(=O)N3C)cc1
10

Give recorded %Inh. CC[C@@H]1CO[C@H](C(=O)Nc2ccccc2)CN1c1cc(-c2ccc3c(N)n[nH]c3c2)nc(NC)n1
5

Give recorded %Inh. CNCc1ccc2nc(NC(=O)c3ccc(C(C)(C)C)cc3)cn2c1
0

Give recorded %Inh. O=c1cc(N2CCOCC2)nc2n(Cc3ccccc3F)ccn12
5

Give recorded %Inh. COc1ccc(CSc2nnc(-c3ccc4c(c3)CCO4)o2)cc1
1

Give recorded %Inh. COc1ccc(CSc2nnc(-c3ccc4ncsc4c3)o2)cc1C(F)(F)F
0
